tested on: MYO3A; settings: concentration: 1 μM, replicates: in singlicate; n = 1
Provide the recorded %Inh for the entries that follow.
Give bare numbers, in %.

Compound: CC(C)(C)c1ccc(-n2cnc3c(N)ncnc32)cc1 [SKF-97263]
System: MYO3A
Measurement Unit: %
%Inh: 1

Compound: Cc1ccc(NC(=O)c2cccc(C#N)c2)cc1-c1ccc(C(=O)Nc2ccncc2)cc1 [GSK1398463]
System: MYO3A
Measurement Unit: %
%Inh: 0

Compound: FC(F)(F)c1cc(Nc2nccc(-c3c(-c4ccc(Cl)cc4)nn4ncccc34)n2)ccc1Cl [GW829351]
System: MYO3A
Measurement Unit: %
%Inh: 0

Compound: CNc1nccc(-c2c(-c3ccc(F)cc3)ncn2C2CCN(C)CC2)n1 [SB-222903]
System: MYO3A
Measurement Unit: %
%Inh: 0

Compound: COc1ccc(NC(=O)c2ccc(-c3cc(-c4nnc(C)o4)ccc3C)cc2)cc1 [GW595885]
System: MYO3A
Measurement Unit: %
%Inh: 16

Compound: Fc1cccc(COc2ccc(Nc3ncnc4sc(-c5ccc[nH]5)cc34)cc2Cl)c1 [GW707818]
System: MYO3A
Measurement Unit: %
%Inh: 17

Compound: C[C@@H]1CCN(C(=O)CO)C[C@@H]1N(C)c1ncnc2[nH]ccc12
System: MYO3A
Measurement Unit: %
%Inh: 0

Compound: Cn1ccc2ncnc(Oc3ccc(NC(=O)Nc4cccnc4)c(Cl)c3)c21
System: MYO3A
Measurement Unit: %
%Inh: 0

Compound: Cl.O=S(=O)(c1cccc(F)c1)c1ccc(Nc2ncnc3cc(Br)sc23)cc1Cl [GSK306886]
System: MYO3A
Measurement Unit: %
%Inh: 22

Compound: FC(F)(F)c1ccc(-c2cc(-c3c[nH]nc3-c3ccccn3)ccn2)cc1 [GW599550]
System: MYO3A;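 note: KINOMEscan kinase panel screen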
Measurement Unit: %
%Inh: 27

// batch mode: one %Inh value per listed entry
1. Cc1ccc(C)c(NC(=O)NCCNc2ccnc(Nc3ccc(F)cc3)n2)c1 [GSK1379878]
2. COc1cc2c(Nc3cccc(NC(=O)c4ccccc4)c3)ncnc2cc1OCCCN1CCOCC1 [GSK223810]
3. Fc1ccc(-c2ncn(CCCNCc3ccccc3)c2-c2ccncc2)cc1
4. CCC(CC)(CC)n1cnc2c(N)ncnc21 [SKF-97620]
5. C[C@H]1CC[C@@H](C(=O)Nc2ccccc2)CN1c1cc(-c2ccc3c(N)n[nH]c3c2)nc(N)n1 [GSK2283293]
6. CC(C)(C)OC(=O)NC1CCCN(c2cc(-c3ccc4c(N)n[nH]c4c3)nc(N)n2)C1 (stereo not drawn) [GSK2286096]

[0, 0, 7, 0, 7, 0]

Each of the following entries comes with a recorded value; kindly state %Inh for each.
1. CC(=O)Nc1n[nH]c2ncc(-c3ccccc3)cc12 [SB-548492]
2. CS(=O)(=O)CCNCc1ccc(-c2ccc3ncnc(Nc4ccc(OCc5ccccc5)c(Cl)c4)c3c2)o1.Cl [GW574783]

25
0
